system: RIVA; assay: growth inhibition by drug alone (1 - RLU/untreated control) (fraction); higher = stronger inhibition; settings: 10 nM; time (day): 6; 177Lu-lilotomab satetraxetan 0 ug/ml

Compound: Cn1cc(-c2ccc3nnc(C(F)(F)c4ccc5ncccc5c4)n3n2)cn1
growth inhibition by drug alone: -0.266
//
Compound: C=CC(=O)Nc1cccc(Oc2nc(Nc3ccc(N4CCN(C)CC4)cc3OC)ncc2Cl)c1
growth inhibition by drug alone: -0.258
//
Compound: CN[C@@H](C)C(=O)N[C@H]1CN(C(=O)CC(C)C)CC[C@H]2CC[C@@H](C(=O)NC(c3ccccc3)c3ccccc3)N2C1=O
growth inhibition by drug alone: -0.417
//
Compound: CNC(=O)c1ccccc1Sc1ccc2c(/C=C/c3ccccn3)n[nH]c2c1 [Axitinib]
growth inhibition by drug alone: -0.609
//
Compound: CN(C)c1ccccc1CN1CCCN(Cc2ccccc2N(C)C)C1c1ccncc1
growth inhibition by drug alone: -0.333

Source listed as the supplement of paper PMC6897291.
